Hi there, I'd appreciate the recorded level, % of control at 1 µM for every entry that follows.
# System: BV-2
# method-notes: Antiinflammatory activity in LPS induced mouse BV-2 cells assessed as NO production at 1 uM by Griess reagent based assay relative to control

The reported value for COc1c2n(cc(C(=O)Nc3ccc(-c4cn(-c5ccccc5C(F)(F)F)nn4)cc3)c1=O)C[C@@H]1OCC[C@@H](C)N1C2=O in terms of level, % of control at 1 µM is 109%

Note to self: level, % of control at 1 µM recorded for COc1c2n(cc(C(=O)Nc3cccc(-c4cn(-c5cccc(C(F)(F)F)c5)nn4)c3)c1=O)C[C@@H]1OCC[C@@H](C)N1C2=O was 99.2%

response.value for COc1c2n(cc(C(=O)Nc3ccccc3-c3cn(-c4cc(C(F)(F)F)cc(C(F)(F)F)c4)nn3)c1=O)C[C@@H]1OCC[C@@H](C)N1C2=O (field: level, % of control at 1 µM) = 86.6%

For record COc1c2n(cc(C(=O)Nc3cccc(-c4cn(-c5cccc(C(F)(F)F)c5)nn4)c3)c1=O)C[C@H]1OC[C@H](C)N1C2=O the listed level, % of control at 1 µM is 104%

Just so you know, measured level, % of control at 1 µM for COc1c2n(cc(C(=O)Nc3ccccc3-c3cn(-c4ccccc4Cl)nn3)c1=O)C[C@@H]1OCC[C@@H](C)N1C2=O came out at 92.4%

// sample COc1c2n(cc(C(=O)Nc3cccc(-c4cn(-c5ccccc5I)nn4)c3)c1=O)C[C@H]1OC[C@H](C)N1C2=O , its level, % of control at 1 µM was 143%

compound COc1c2n(cc(C(=O)Nc3ccc(-c4cn(-c5cc(C(F)(F)F)ccc5C(F)(F)F)nn4)cc3)c1=O)C[C@@H]1OCC[C@@H](C)N1C2=O , level, % of control at 1 µM observed: 83%

Note to self: level, % of control at 1 µM recorded for COc1c2n(cc(C(=O)Nc3ccc(-c4cn(-c5ccccc5Cl)nn4)cc3)c1=O)C[C@@H]1OCC[C@@H](C)N1C2=O was 98.8%

// level, % of control at 1 µM value for COc1c2n(cc(C(=O)Nc3ccc(-c4cn(-c5cc(C(F)(F)F)cc(C(F)(F)F)c5)nn4)cc3)c1=O)C[C@@H]1OCC[C@@H](C)N1C2=O : 105%

response.value for COc1c2n(cc(C(=O)Nc3cccc(-c4cn(-c5cc(C(F)(F)F)ccc5C(F)(F)F)nn4)c3)c1=O)C[C@@H]1OCC[C@@H](C)N1C2=O (field: level, % of control at 1 µM) = 80.8%

The reported value for COc1ccccc1-n1cc(-c2ccccc2NC(=O)c2cn3c(c(OC)c2=O)C(=O)N2[C@H](C)CCO[C@H]2C3)nn1 in terms of level, % of control at 1 µM is 87.1%

Noted for COc1c2n(cc(C(=O)Nc3ccccc3-c3cn(-c4c(C)cc(C)cc4C)nn3)c1=O)C[C@@H]1OCC[C@@H](C)N1C2=O : its level, % of control at 1 µM reads 81.4%

Record CCc1ccccc1-n1cc(-c2ccccc2NC(=O)c2cn3c(c(OC)c2=O)C(=O)N2[C@H](C)CCO[C@H]2C3)nn1 . Reported level, % of control at 1 µM: 86.7%
